assay: Half life in culture medium (25 uM, 37 degree C); type: ADME
recorded-endpoint: half-life at 25 µM

>>> recorded_value("CC(=O)SCCOP(=O)(OCCSC(C)=O)OCC1OC(n2cc(C)c(=O)[nH]c2=O)CC1N=[N+]=[N-] (configuration not stated)")
"9 h"
>>> recorded_value("Cc1cn(C2CC(N=[N+]=[N-])C(COP(=O)(OCCSC(=O)C(C)(C)C)OCCSC(=O)C(C)(C)C)O2)c(=O)[nH]c1=O (configuration not stated)")
"103 h"

* * *

experiment: Half life in CEM cell extracts (25 uM, 37 degree C); type: ADME, CCRF-CEM; conditions: human
recorded-endpoint: half-life at 25 µM (h)

>>> recorded_value("Cc1cn(C2CC(N=[N+]=[N-])C(COP(=O)(OCCSC(=O)C(C)(C)C)OCCSC(=O)C(C)(C)C)O2)c(=O)[nH]c1=O (configuration not stated)")
1
